Measured Tm by item
B1: Lysozyme C, P61626 (parent)
chain: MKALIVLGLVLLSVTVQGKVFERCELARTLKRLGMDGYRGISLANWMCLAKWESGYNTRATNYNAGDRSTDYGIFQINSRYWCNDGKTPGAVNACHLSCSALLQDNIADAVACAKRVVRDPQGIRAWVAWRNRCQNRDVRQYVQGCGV

Variants of: B1
Settings: Homo sapiens; pH 2.7; Thermal; DSC; glycine 0.05 M; reversible: yes; structure 1LZ1; whole UniProt chain shown
Recorded Endpoint: Tm (°C)

{"columns": ["Variant Descriptor", "Number"],
 "data": [
  ["I124A", 61.9],
  ["I77A", 59.7],
  ["I41A", 56.8],
  ["I107A", 56.2]
]}
